- Target Of Assay: rat-alpha7-nAChR (Rattus norvegicus, UniProt Q05941)
- Construct: expressed in transfected cells
- Sequence (Q05941 23-502): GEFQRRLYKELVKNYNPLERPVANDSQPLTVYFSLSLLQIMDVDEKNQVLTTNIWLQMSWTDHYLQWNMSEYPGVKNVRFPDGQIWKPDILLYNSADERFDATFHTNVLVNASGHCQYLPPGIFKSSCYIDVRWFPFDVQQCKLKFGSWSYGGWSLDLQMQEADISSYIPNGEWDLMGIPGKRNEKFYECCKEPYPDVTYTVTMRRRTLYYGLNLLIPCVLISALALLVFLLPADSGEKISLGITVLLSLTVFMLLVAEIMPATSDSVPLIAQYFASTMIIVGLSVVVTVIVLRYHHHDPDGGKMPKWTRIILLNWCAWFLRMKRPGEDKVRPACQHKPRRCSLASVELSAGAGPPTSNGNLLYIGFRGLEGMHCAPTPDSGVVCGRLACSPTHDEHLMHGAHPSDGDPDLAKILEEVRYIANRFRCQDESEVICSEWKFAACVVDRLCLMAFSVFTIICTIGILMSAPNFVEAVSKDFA
- Experiment Summary: functional FLIPR assay, alpha7 nAChR stably expressed in GH4C1 cells
- Format: cell-based
- Condition Info: GH4C1 cell line expressing the alpha7 nAChR, concentration-response curves; read-out: Alpha 7 EC50
In plain terms, low EC50, meaning strictly below 0.2 µM, gives Criterion met, and everything else gives Criterion not met.

Incoming: Record `O=C(NCCCCN1CCCCC1)Nc1ccc(-c2ccc(F)nc2)nc1` : is its EC50 strictly below 0.2 µM?
Outgoing: Criterion not met

Incoming: Record `O=C(NCCCCN1CCCCC1)Nc1ccc(-c2ccccc2)nc1` : is its EC50 strictly below 0.2 µM?
Outgoing: Criterion met

Incoming: Record `O=C(NCCCCN1CCCCC1)Nc1ccc(-c2ccncc2)cc1` : is its EC50 strictly below 0.2 µM?
Outgoing: Criterion met

Incoming: Record `COc1ccccc1-c1ccc(NC(=O)NCCCCN2CCCCC2)cn1` : is its EC50 strictly below 0.2 µM?
Outgoing: Criterion not met

Incoming: Record `Cn1cc(-c2ccc(NC(=O)NCCCCN3CCCCC3)cc2)cn1` : is its EC50 strictly below 0.2 µM?
Outgoing: Criterion met

Incoming: Record `O=C(NCCCCN1CCCCC1)Nc1ccc(-c2ccncc2)nc1` : is its EC50 strictly below 0.2 µM?
Outgoing: Criterion not met

Incoming: Record `O=C(NCCCCN1CCCCC1)Nc1ccc(-c2cccs2)nc1` : is its EC50 strictly below 0.2 µM?
Outgoing: Criterion met

Incoming: Record `COc1ccc(-c2ccc(NC(=O)NCCCCN3CCCCC3)cn2)cc1` : is its EC50 strictly below 0.2 µM?
Outgoing: Criterion not met
